target: RXRα (Homo sapiens, UniProt P19793)
Sequence (P19793 whole entry): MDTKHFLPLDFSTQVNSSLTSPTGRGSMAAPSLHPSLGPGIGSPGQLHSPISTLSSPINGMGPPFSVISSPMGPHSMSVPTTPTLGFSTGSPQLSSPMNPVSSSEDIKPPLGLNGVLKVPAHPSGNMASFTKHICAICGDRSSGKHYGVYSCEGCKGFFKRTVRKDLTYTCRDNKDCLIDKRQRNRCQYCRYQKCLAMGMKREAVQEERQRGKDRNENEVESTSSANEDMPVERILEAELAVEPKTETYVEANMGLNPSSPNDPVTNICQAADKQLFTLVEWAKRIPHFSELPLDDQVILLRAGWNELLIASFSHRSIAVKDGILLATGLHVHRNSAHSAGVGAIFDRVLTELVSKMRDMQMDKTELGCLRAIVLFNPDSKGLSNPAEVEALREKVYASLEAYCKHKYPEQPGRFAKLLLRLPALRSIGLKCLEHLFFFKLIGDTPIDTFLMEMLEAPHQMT
test-method-notes: RXRα binding (competition with tritiated LGD1069)
test-context: from IC50 by Cheng-Prussof equation, tritiated LGD1069; read-out: Bind RXRα Ki
Documented pKi across a set of compounds
Please keep in mind that pKi is minus log10 of the molar concentration; only the number is needed.

>>> observed_result("CCOc1c(/C(C)=C/C=C/C(C)=C/C(=O)O)cc(C(C)(C)C)cc1C(C)(C)C [Compound L2]")
7.89

What value of pKi has been reported for the following compound? CCCOc1c(/C(C)=C/C=C/C(C)=C/C(=O)O)cc(C(C)(C)C)cc1C(C)(C)C [Compound L3]
9.00

What value of pKi has been reported for the following compound? CCCCCCCOc1c(/C(C)=C/C=C/C(C)=C/C(=O)O)cc(C(C)(C)C)cc1C(C)(C)C [Compound L5]
9.22

What value of pKi has been reported for the following compound? CCCCOc1c(/C(C)=C/C=C/C(C)=C/C(=O)O)cc(C(C)(C)C)cc1C(C)(C)C [Compound L4]
9.00

What value of pKi has been reported for the following compound? COc1c(/C(C)=C/C=C/C(C)=C/C(=O)O)cc(C(C)(C)C)cc1C(C)(C)C [Compound L1]
8.96
